# procedureText: NCI Yeast Anticancer Drug Screen. Data for the sgs1 mgt1 strain (AID 161);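 also: 0% = growth of cultures given vehicle only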
# runParameters: S. cerevisiae sgs1 mgt1 strain, at 50.0 µM, active compounds read high
About 79,000 compounds went through this panel and 15% of them were active in at least one assay; those are over-represented in the sample as a whole.
assayMetric: growth inhibition (%)
State just the number; it will be interpreted in %.

The recorded growth inhibition for entry COc1cc(C(=O)NC(=S)Nc2ccc3ccccc3c2)cc(OC)c1OC equals 6.25

Given item O=C1Cc2ccccc2C(=O)O1 , the value recorded as its growth inhibition is 1.95

# growth inhibition (compound: COc1cccc(COC(=O)Nc2ccccc2)c1OC ) is 29.7

The compound identified as Cc1ccncc1C(N)=O registered its growth inhibition at -9.55

Sample CC(=O)OC1CC2C(C)(C)OC3CC(=O)OCC32C2CCC3(C)C(=CCC3c3ccoc3)C12C (stereo unspecified) ; growth inhibition observed: -26.6

In plain terms, O=C1NC(=O)C2C(=O)NC(=O)C1C21CCc2ccccc21 (stereo unspecified) has a documented growth inhibition of -23.5

---

# procedureText: NCI Yeast Anticancer Drug Screen. Data for the rad50 strain (AID 155);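 also: 0% = growth of vehicle-only cultures of the same strain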
# runParameters: S. cerevisiae rad50 strain growth inhibition; at 50.0 µM; active compounds read high
The panel holds about 79,000 compounds, 15% with a hit somewhere; the sample as a whole holds those more often.
assayMetric: growth inhibition (%)
The figure you give is taken to be in %; do not add the unit.

Consider the reported growth inhibition for these molecules:
molecule | unitSymbol | growth inhibition
CC(C)(C)c1cc(O)c(C(C)(C)C)cc1O | % | 12.1
CCOC(=O)C(CCC(C)C)C(=O)OCC | % | -7.55
COCCCNC(=O)c1nnn2c1nc(N)c1cc(Cl)ccc12 | % | -2.65
COc1cc2cc(c1Cl)N(C)C(=O)C[C@H](OC(=O)[C@H](C)N(C)C(C)=O)[C@]1(C)O[C@H]1[C@H](C)[C@@H]1C[C@@](O)(NC(=O)O1)[C@H](OC)C=C/C=C(\C)C2 | % | 12.1
O=C(O)CCCCNC(=O)c1ccccc1 | % | 19.6

growth inhibition measured on O=C1C=CC(=O)N1c1ccc(I)cc1Cl = 29.9

The molecule identified as COCCOC(=O)c1ccc(C(C)C)cc1 registered its growth inhibition at 8.8

Quick note, growth inhibition for O=C(Cc1ccccc1)Cc1ccccc1 landed at -1.55

Lab note: measured growth inhibition of Cc1cc(=O)[nH]c(NN=C2CCCC2)n1 was -27.9

Reported growth inhibition of O=C1OC[C@H]2[C@H](c3ccc(O)c(O)c3)c3cc(O)c(O)cc3C[C@H]12 : 24.9

// field: growth inhibition; key: CC(=O)c1ccc(C(C)(C)C)cc1 ; value = -2.35

Recorded growth inhibition (molecule NNc1ccccc1C(=O)O ): 4.4

// recorded growth inhibition for O=C(CN1CCNCC1)N1CCOCC1 : -25.6

---

# procedureText: NCI Yeast Anticancer Drug Screen. Data for the cln2 rad14 strain (AID 165);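 also: 0% = growth equal to vehicle treated cultures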
# runParameters: S. cerevisiae cln2 rad14 strain, at 50.0 µM, active compounds read high
About 79,000 compounds went through this panel and 15% of them were active in at least one assay; those are over-represented in the sample as a whole.
Let's look at some compounds and their measured growth inhibition.
Field format: number, assumed %, no unit text.

compound | unitSymbol | growth inhibition
Oc1ccccc1O | % | -11.7

// recorded growth inhibition for COc1cc(/C=N\Nc2ccccc2)ccc1OC(=O)c1ccccc1 : 23.9

Just so you know, measured growth inhibition for COc1cc(/C=C/C(=O)c2ccccc2)cc(OC)c1OC came out at 34.5

// COc1ccc2c(NCCCCCCCCNc3c4ccccc4nc4cc(OC)ccc34)c3ccccc3nc2c1 : growth inhibition value = 89.3

Recorded growth inhibition (compound CCC/C=C(\C)C(C)(C#N)C(=O)OCC (stereo not given) ): -1.35

growth inhibition recorded for this compound, O=C(O)c1ccccc1NCc1ccco1 , is 7.85

Lookup result for Clc1ccc(-c2nnc(-c3cccc4ccccc34)o2)cc1 ; measured growth inhibition: 0.15

Consider CCOC(=O)c1ccc(Nc2sc(C(=O)c3cccc([N+](=O)[O-])c3)c(N)c2C#N)cc1 . Its measured growth inhibition is 5.75

Documented growth inhibition of CCc1nc(N)nc(N)c1-c1ccc(Cl)cc1 : -42.5

Quick note, growth inhibition for CC(CN1CCCCC1)NC(=O)c1scnc1-c1ccccc1 (stereo not given) landed at -2.5

For record NC(C(=O)O)C(O)c1ccco1 (stereo not given) the listed growth inhibition is 13.8

Query Oc1ccccc1-c1nnco1 yields growth inhibition of 4.35

Entry Oc1ccc(Cc2ccccc2)c2cccnc12 , growth inhibition reported as -19.4

The measured growth inhibition associated with CCOC(=O)c1cc(/C=C/c2ccc(Cl)cc2Cl)on1 reads -41.1

Lab note: measured growth inhibition of CC(C)=CC(=O)OC(=O)C=C(C)C was 1.8

Consider CCOC(=O)C1=C(C)NC(=O)NC1c1cccs1 (stereo not given) . Its measured growth inhibition is 5.5

---

// values below are reported growth inhibition
# procedureText: NCI Yeast Anticancer Drug Screen. Data for the bub3 strain (AID 167)
# runParameters: S. cerevisiae bub3 mutant strain, at 50.0 µM, active compounds read high
This is part of a sample that, as a whole, favours compounds with a hit. Of some 79,000 tested, about 15% had one in any assay.
Response body: numeric value in %, unit text excluded.

Known growth inhibition results, listed for orientation:
compound | assayMetric | unitSymbol | reportedValue
COc1cc2c3cc1Oc1c(OC)c(OC)cc4c1C(Cc1ccc(O)c(c1)Oc1ccc(cc1)CC3N(C)CC2)N(C)CC4 (stereo not given) | growth inhibition | % | 8.1
CCCCN(CCCC)CCCO | growth inhibition | % | -2.7
O=C1OC[C@H]2[C@H](c3ccc(O)c(O)c3)c3cc(O)c(O)cc3C[C@H]12 | growth inhibition | % | 23.7
O=C(/C=C/C(=O)c1ccccc1)c1ccccc1 | growth inhibition | % | 36
C/C=C/CC(C)C(O)C1C(=O)NC(CC)C(=O)N(C)CC(=O)N(C)C(CC(C)C)C(=O)NC(C(C)C)C(=O)N(C)C(CC(C)C)C(=O)NC(C)C(=O)NC(C)C(=O)N(C)C(CC(C)C)C(=O)N(C)C(CC(C)C)C(=O)N(C)C(C(C)C)C(=O)N1C (stereo not given) | growth inhibition | % | 22.7

Short answer for OCC(O)C(O)C(O)C(O)/C=N/O (stereo not given) : growth inhibition was -1.1

What the record says about CC(C)(O)C#CC#CC(C)(C)O : growth inhibition is -41

---

Known growth inhibition of a selection of compounds
# procedureText: NCI Yeast Anticancer Drug Screen. Data for the cln2 rad14 strain (AID 165);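 also: 0% = growth equal to vehicle treated cultures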
# runParameters: S. cerevisiae cln2 rad14 strain, at 50.0 µM, active compounds read high
Compounds without any hit were thinned out: in the full panel of roughly 79,000, 15% have a hit.
Please reply with the bare figure in % and do not write the unit itself.

compound | reportedValue
CN1C(=O)CN2CCc3ccccc3C2c2cc(Cl)ccc21 (centres undefined) | 22.1
COC(=O)c1ccccc1N(C)C | 2.4
CC1CC(O)CC(C)(C)C1 (centres undefined) | -25.4

Entry under test: COC1=CC(=O)c2nc(Cl)ccc2C1=O . Its growth inhibition was -1

Looking up CCN(CC)c1ccc2nc3ccc(=[N+](CC)CC)cc-3oc2c1 , I found its growth inhibition recorded as -165

---

# procedureText: NCI Yeast Anticancer Drug Screen. Data for the cln2 rad14 strain (AID 165);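 also: 0% = growth equal to vehicle treated cultures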
# runParameters: S. cerevisiae cln2 rad14 strain, at 50.0 µM, active compounds read high
About 79,000 compounds went through this panel and 15% of them were active in at least one assay; those are over-represented in the sample as a whole.
# key: entry, value: growth inhibition
Respond numerically; units are % and should not be typed.

Sample records with growth inhibition:
compound | assayMetric | reportedValue
c1ccc2c(c1)Sc1ccccc1S2 | growth inhibition | -19.6
O=C(Nc1ccccc1C(=O)NCC1CC1)c1cccs1 | growth inhibition | 5.35
C#CCSc1nnnn1-c1ccc(Br)c(C)c1 | growth inhibition | 22.3
c1cc[n+](C2c3ccccc3C([n+]3ccccc3)c3ccccc32)cc1 (configuration not stated) | growth inhibition | -23.9

Recorded growth inhibition (compound N#CSc1cc(S(N)(=O)=O)ccc1N ): -5.35

Reported growth inhibition of C=CCc1cc(C(C)=O)cc(OC)c1O : -16.5

// sample COC(=O)c1cc(-c2ccc(Cl)c(Cl)c2)[nH]c(=O)c1C#N , its growth inhibition was 21.7

---

# procedureText: NCI Yeast Anticancer Drug Screen. Data for the rad50 strain (AID 155);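 also: 0% = growth of vehicle-only cultures of the same strain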
# runParameters: S. cerevisiae rad50 strain growth inhibition; at 50.0 µM; active compounds read high
This is part of a sample that, as a whole, favours compounds with a hit. Of some 79,000 tested, about 15% had one in any assay.
assayMetric: growth inhibition (%)
Express it in %; write the number only.

compound | unitSymbol | growth inhibition
CN(C)/N=C/c1ccccc1O | % | 1
CCc1ccc(/C(C#N)=C/C=C/c2ccccc2)cc1 | % | 8.9
CC(C)CCOC(=O)c1ccccc1 | % | -7.2
O=[N+]([O-])c1ccc(O)c(S(=O)(=O)O)c1 | % | 8.55

// Nc1ccc(N=Nc2ccc(O)cc2)c(N)n1 : growth inhibition value = -15.7

Measured growth inhibition, CC(=O)CC(=O)N(C)C : 0.3

Sample O=S(=O)(O)C(Nc1ccccc1)c1ccccc1 (configuration not stated) ; growth inhibition observed: -4.35
